Target: T1, 4H570-bA
T1 chain: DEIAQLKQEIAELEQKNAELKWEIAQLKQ
Test: two-hybrid library CCNG1;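 note: natural log of median RNA to DNA barcode read ratio; higher means stronger binding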
readout_label: interaction score

(a) DKNAQLKQENAELKQKIAELKWEIAQLEQ [4H3817-bA]
(b) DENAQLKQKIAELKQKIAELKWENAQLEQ [4H1899-bA]
(c) DEIAQLEQKNAELKQEIAELKWKIAQLKQ [4H462-bA]
(d) DENAQLEQKIAELKQEIAELKWKNAQLEQ [4H1359-bA]
Challenge: Put the items above in order of decreasing interaction score. List the labels, following the order given in the request.
Response given: b, d, a, c
